Molecular target: cytohesin-1 (full-length)
Sequence: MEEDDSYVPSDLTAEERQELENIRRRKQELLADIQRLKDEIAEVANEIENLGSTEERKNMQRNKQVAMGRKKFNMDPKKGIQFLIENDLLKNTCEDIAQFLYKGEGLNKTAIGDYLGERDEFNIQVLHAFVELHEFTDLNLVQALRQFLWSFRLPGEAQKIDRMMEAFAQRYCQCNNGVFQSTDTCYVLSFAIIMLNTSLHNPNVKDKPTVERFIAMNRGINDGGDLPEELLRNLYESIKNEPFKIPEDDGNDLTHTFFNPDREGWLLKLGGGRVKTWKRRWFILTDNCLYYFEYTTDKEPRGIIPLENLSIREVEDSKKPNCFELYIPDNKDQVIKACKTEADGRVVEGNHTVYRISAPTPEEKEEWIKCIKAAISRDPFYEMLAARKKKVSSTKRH
Test: filter
Conditions: non-selected library; 3 mM MgCl2, 37 C
Property: Kd

Biopolymer sequence: CUAUAGGGAGAGACAAGCUUGGGUCNNNNNNNNNNNNNNNNNNNNNNNNNNNNNNNNNNNNNNNNAGAAGAGAAAGAGAAGUUAAUUAAGGAUCCUCAG [non-selected N40 RNA library]
Property: Kd
Readout value: > 4 µM

Values from patent US20040170990A1
